- System: 242566-281-R-J2-PDC complex spheroid viability;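 further: spheroids exposed to compound for 7 days before readout; 100% = DMSO vehicle control wells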
- measurement_protocol: Anticancer human tumor 242566-281-R-J2-PDC patient-derived pancreatic carcinoma cell line growth inhibition [RAS]
- cond: second compound 1 µM; first compound 3.16 µM; active compounds read low
parameter: viability, T/C (%)
Give bare numbers, in %.

>>> numeric_value("CC(=O)OC12COC1CC(O)C1(C)C(=O)C(O)C3=C(C)C(OC(=O)C(O)C(NC(=O)OC(C)(C)C)c4ccccc4)CC(O)(C(OC(=O)c4ccccc4)C21)C3(C)C (configuration not stated) + C#Cc1c(F)ccc2cc(O)cc(-c3ncc4c(N5CC6CCC(C5)N6)nc(OCC56CCCN5CC(F)C6)nc4c3F)c12")
34.2

The record that follows has no viability, T/C shown yet.
// field: viability, T/C; key: CC(=O)OC12COC1CC(O)C1(C)C(=O)C(O)C3=C(C)C(OC(=O)C(O)C(NC(=O)OC(C)(C)C)c4ccccc4)CC(O)(C(OC(=O)c4ccccc4)C21)C3(C)C (configuration not stated) + C=CC(=O)N1CCN(c2nc(OCC3CCCN3C)nc3c(F)c(-c4nc(N)cc(C)c4C(F)(F)F)c(Cl)cc23)C(C)C1 ; value = 50.9
